Give TGI for every item shown.
# Tested on: DLD-1 colon
# Method Description: NCI tumour cell line growth inhibition, 48 h

Worked examples, 4 compounds total:
Compound	Result
O=c1cc(-c2ccccc2)oc2ccc(Cl)cc12	> 100 µM
Cc1cc(N(CCC#N)CCC#N)ccc1/C=C(\NC(=O)/C=C/c1ccccc1)C(=O)Nc1ccccc1Cl	> 100 µM
COc1ccc(/C=C/C(=N\NC(=O)c2ccccc2)c2sc(Nc3ccc([N+](=O)[O-])cc3)nc2C)cc1OC	28.8 µM
FC(F)(F)c1ccccc1C1SCc2nc3ccccc3n21 (stereo not given)	> 100 µM

Let us move to another entry and its TGI.
Dear colleague, I am looking for the recorded TGI of the following compound: COC(=O)CC1(O)C(=O)OCc2c1cc1n(c2=O)Cc2c-1nc1ccccc1c2OC (stereo not given)
> 100 µM

###

# System: A498 renal
# Method Description: NCI tumour cell line growth inhibition, 48 h; in the data active = GI50 below about 0.43 µM; inactive = the rest
Select the matching outcome among active, inactive

Study these solved cases before continuing.
Compound	Class Assignment
Cc1ccc(S(=O)(=O)OC[C@@]2(C)CC[C@]3(C)CC[C@]4(C)C(=C3C2)C=C[C@@H]2[C@@]3(C)CCCNC(C)(C)[C@@H]3CC[C@]24C)cc1	inactive
COc1ccc(-c2nsc3c2NC(=O)CC3c2ccsc2)cc1 (stereo not given)	active
CCCCCCCCCCCC1N=C(N)N=C(N)N1c1cccc(Br)c1 (stereo not given)	inactive
CCN(CC)c1ccc(/C=N/NC(=O)Cc2ccc(Nc3ccnc(C(F)(F)F)c3)cc2)c(O)c1	inactive

Field: next compound
For this compound, state the assay outcome: O=C1C(Cl)=C(Nc2ccc(S(=O)(=O)c3ccc(NC4=C(Cl)C(=O)c5ccccc5C4=O)cc3)cc2)C(=O)c2ccccc21
inactive

###

# System: OVCAR-8 ovarian
# Method Description: NCI tumour cell line growth inhibition, 48 h; in the data active = GI50 below about 0.43 µM; inactive = the rest
Select the matching outcome among class 1 = active, class 0 = inactive

Molecule	Class Assignment
COc1cc2c(c(OC)c1OC)-c1cc(I)c(O)cc1[C@@H](NC(C)=O)CC2	class 1
CCn1cc(C(=O)O)c(=O)c2cc(F)c(N3CCN(S(=O)(=O)c4ccc(Cl)cc4Cl)CC3)cc21	class 0
Nc1ncn([C@H]2CC(O)[C@@H](CO)S2)c(=O)n1 (stereo partly specified)	class 1
O=c1c(I)c[nH]cc1I	class 0
COc1cccc(C2CC(=O)Nc3c2c(C)nn3-c2nc3ccccc3[nH]2)c1OC (stereo unspecified)	class 0

For this molecule, state the assay outcome: N[C@@H]1CCCN(c2c(Br)cnc3[nH]cc(NC(=O)C4CC4)c23)C1
class 0

For this molecule, state the assay outcome: O=C(Nc1cccc(-n2ccc3c(NC(=O)c4ccccc4)ncnc32)c1)Nc1ccc(Cl)c(C(F)(F)F)c1
class 0

For this molecule, state the assay outcome: CCCCCCCCCCCC1N=C(N)N=C(N)N1c1cccc(Br)c1 (stereo unspecified)
class 0

For this molecule, state the assay outcome: CCSC[C@@H]1C[C@](O)(c2ccccc2)[C@@H](c2ccccc2)O1
class 0

For this molecule, state the assay outcome: CCCC(=O)Nc1cc(C(=O)N2C[C@H]3C[C@@]34C2=CC(=O)c2[nH]cc(C)c24)n(COC)c1
class 1

For this molecule, state the assay outcome: [CH3][Sn]([CH3])([CH3])[S]C(=S)N1CCOCC1
class 0

For this molecule, state the assay outcome: Cc1cc(N2CCC(N3CCCC3)CC2)nc(/N=C(\N)Nc2ccc(Cl)c(Cl)c2)n1
class 0

For this molecule, state the assay outcome: COc1cc2ncn(-c3cc(OCc4ccccc4C(F)(F)F)c(C(N)=O)s3)c2cc1OC
class 1

For this molecule, state the assay outcome: CN1CCCCC1CCN1c2ccccc2Sc2ccc(Br)cc21 (stereo unspecified)
class 0

For this molecule, state the assay outcome: Cc1ccc(-c2nc(NCCOCCOCCN)nc(N3CCN(c4ccccn4)CC3)n2)cc1
class 0

For this molecule, state the assay outcome: CCN(CC)CCOC(COc1cc(C)cc(C)c1)COc1cc(C)cc(C)c1
class 0

###

# Test system: CAKI-1 renal
# Method Description: NCI tumour cell line growth inhibition, 48 h; in the data active = GI50 below about 0.43 µM; inactive = the rest
Select the matching outcome among true = active, false = inactive

Molecule	Class Assignment
CCN(CC)c1ccc(/C=N/NC(=O)Cc2ccc(Nc3ccnc(C(F)(F)F)c3)cc2)c(O)c1	true
Cn1c(=O)c(-c2ccccc2Cl)cc2cnc(NC3CCOCC3)nc21	false

For this molecule, state the assay outcome: Cn1cc(-c2cc(-c3cn(C)c4ccccc34)[nH]n2)c2ccccc21
false

For this molecule, state the assay outcome: CCCCCCCCCCCC1N=C(N)N=C(N)N1c1cccc(Br)c1 (stereo unspecified)
false

For this molecule, state the assay outcome: O=c1c(I)c[nH]cc1I
false

For this molecule, state the assay outcome: CC(=O)ON(OCc1ccc2ccccc2c1)C(C)=O
false

For this molecule, state the assay outcome: CN(C)CCCN1c2ccccc2Sc2ccc(C(F)(F)F)cc21
false

For this molecule, state the assay outcome: Cc1cc(NC(=O)NCc2ccc(N3C(N)=NC(N)=NC3(C)C)cc2)ccc1S(=O)(=O)F
false

For this molecule, state the assay outcome: CCSC[C@@H]1C[C@](O)(c2ccccc2)[C@@H](c2ccccc2)O1
false

For this molecule, state the assay outcome: CCCCNc1ncnc2c1cnn2-c1ccccc1
false

For this molecule, state the assay outcome: COc1ccc2nc3ccccc3c(NCCNCCO)c2c1
false

For this molecule, state the assay outcome: Nc1ncn([C@H]2CC(O)[C@@H](CO)S2)c(=O)n1 (stereo partly specified)
false

###

Give TGI for every item shown.
# Test system: CAKI-1 renal
# Method Description: NCI tumour cell line growth inhibition, 48 h

Compound	TGI
CC(=O)N[C@@H](Cc1ccc(O)cn1)C(=O)NCc1ccc(Cl)cc1	> 100 µM
CCOc1ccc2nc(NC(=O)C(=O)C3C(=O)C(CC4C(=O)c5ccccc5C4=O)C(=O)CC3(C)C)sc2c1 (stereo not drawn)	> 100 µM

Dear colleague, I am looking for the recorded TGI of the following compound: COc1ccc(/C=C/C(=O)c2c(-c3ccccc3)nn(C)c(=O)c2N2CC2C)cc1 (stereo not drawn)
> 100 µM

###

# System: HCC-2998 colon
# Method Description: NCI tumour cell line growth inhibition, 48 h
Recorded Metric: TGI

Worked examples, 4 compounds total:
Compound	Result
C=C1C(=O)OC2CC(C)C(/C=C/C(C)=O)=CCC12 (stereo not given)	> 100 µM
O=C(/C=C/c1ccccc1)c1ccc(Cl)cc1Cl	40.9 µM
Cc1cc(NC(=O)NCc2ccc(N3C(N)=NC(N)=NC3(C)C)cc2)ccc1S(=O)(=O)F	> 100 µM
C=C1OC2OC(C)C(NC(=O)OCC(Cl)(Cl)Cl)C(OC(C)=O)C2O1 (stereo not given)	> 100 µM

Let us move to another entry and its TGI.
Dear colleague, I am looking for the recorded TGI of the following compound: CCCOC(=O)c1cc(O)c(O)c(O)c1
> 100 µM

###

Give TGI for every item shown.
# Test system: NCI-H226 lung
# Method Description: NCI tumour cell line growth inhibition, 48 h
One number for each entry, in µM.

Compound	Numeric Value
CN(CCN)[C@H](CSSC[C@@H](c1ccccc1O)N(C)CCN)c1ccccc1O	35.4
Cc1nc2ccc(NCCN(C)C)c3c(=O)c4ccccc4n1c23	8.69
[Br][Pb]([c]1ccccc1)([c]1ccccc1)[c]1ccccc1	0.381

// for each compound in input: emit TGI
1. [CH3][Sn]([CH3])([CH3])[S]C(=S)N1CCOCC1
2. C[C@]12CC[C@H]3[C@@H](CC=C4C[C@@H](O)CC[C@@]43C)[C@@H]1C/C(=C\c1cccnc1)[C@@H]2O
3. Fc1ccccc1CN1COc2c(cc(Cl)c3cccnc23)C1

[17, 57.4, 2.97]

// for each compound in input: emit TGI
1. Cc1ccc(C2=CC(=O)/C(=C\C(=O)c3ccc(Br)cc3)O2)c(C)c1
2. Cc1c(C#N)c2nnn(-c3cccc(Cl)c3)c(=O)n2c1-c1ccccc1
3. COC(=O)CC1(O)C(=O)OCc2c1cc1n(c2=O)Cc2c-1nc1ccccc1c2OC (stereo not drawn)
4. COc1ccc(-c2nsc3c2NC(=O)CC3c2ccsc2)cc1 (stereo not drawn)

1: 30.8; 2: 12.6; 3: 0.688; 4: 16.9

###

# Tested on: NCI-H522 lung
# Method Description: NCI tumour cell line growth inhibition, 48 h; in the data active = GI50 below about 0.43 µM; inactive = the rest
Select the matching outcome among active, inactive

Molecule	Class Assignment
Cc1ccc(-c2nc(NCCOCCOCCN)nc(N3CCN(c4ccccn4)CC3)n2)cc1	inactive
O=C(/C=C/c1ccc(O)c(O)c1)N1CCN(c2ccc(Cl)cc2)CC1	inactive
COc1cc2c(c(OC)c1OC)-c1cc(I)c(O)cc1[C@@H](NC(C)=O)CC2	active
COc1cc(-c2nc(-c3ccccc3)c(-c3ccccc3)[nH]2)cc(OC)c1O	inactive
Cc1ccc(S(=O)(=O)OC[C@@]2(C)CC[C@]3(C)CC[C@]4(C)C(=C3C2)C=C[C@@H]2[C@@]3(C)CCCNC(C)(C)[C@@H]3CC[C@]24C)cc1	inactive

For this molecule, state the assay outcome: [O]=[Sn]([CH]1CCCCC1)[CH]1CCCCC1
active

For this molecule, state the assay outcome: Cc1ccc(NCCNCC(C)(C)O)c2c(=O)c3ccc(Cl)cc3sc12
inactive

For this molecule, state the assay outcome: CN(C)CCCN1c2ccccc2Sc2ccc(C(F)(F)F)cc21
inactive

For this molecule, state the assay outcome: Clc1ccc2c(NCCNc3nc(N4CCOCC4)nc4ccccc34)ccnc2c1
inactive

For this molecule, state the assay outcome: Cc1cc(NC(=O)NCc2ccc(N3C(N)=NC(N)=NC3(C)C)cc2)ccc1S(=O)(=O)F
inactive

For this molecule, state the assay outcome: Cn1c(=O)c(-c2ccccc2Cl)cc2cnc(NC3CCOCC3)nc21
inactive
